Origin of the recorded values: the supplement of paper PMC7877785

Hi there, I'd appreciate the recorded self-splicing fitness (ln) for every entry that follows.
protocol: self-splicing fitness, log relative to wild type (ln ratio); higher = more splicing; Tetrahymena group I intron in knt gene, E. coli kanamycin selection, DiMSum; sequences stand for … in CUCUCU…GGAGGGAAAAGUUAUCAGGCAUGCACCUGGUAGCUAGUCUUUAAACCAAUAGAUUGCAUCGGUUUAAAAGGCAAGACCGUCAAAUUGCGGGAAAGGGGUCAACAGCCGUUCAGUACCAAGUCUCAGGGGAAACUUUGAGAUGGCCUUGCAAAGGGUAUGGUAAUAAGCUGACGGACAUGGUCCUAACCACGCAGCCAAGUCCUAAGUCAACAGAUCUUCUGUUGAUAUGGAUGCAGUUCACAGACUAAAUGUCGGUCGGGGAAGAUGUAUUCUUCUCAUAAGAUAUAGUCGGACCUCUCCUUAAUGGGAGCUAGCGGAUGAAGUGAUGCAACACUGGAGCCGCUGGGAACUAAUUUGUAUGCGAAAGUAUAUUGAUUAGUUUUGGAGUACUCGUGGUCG;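 note: selection with 25 µg/mL kanamycin versus none on LB agar overnight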
condition description: 30 °C
Give bare numbers.

Use these answered entries as a reference point.
CAUGAGCAAUAUUACGCGGG | -1.45
UUCCAGCAAUAUUACGUGAC | -2.56
UAUAAGCAAUAUUACGGCCG | 0.336
CCGUAGCAAUAUUACGUCCA | -2.27
CCUUAGCAAUAUUACGAGAU | -2.62
AUAUAGCAAUAUUACGUGUG | -3.82
AGUAAGCAAUAUUACGGAGC | -2.93
ACCGAGCAAUAUUACGAGUA | -3.23
CUCUAGCAAUAUUACGGUAU | -2.7
GGAAAGCAAUAUUACGCAUC | -2.7

Batch request: self-splicing fitness (ln) per item, same order as input.
1. ACCAAGCAAUAUUACGACAU
2. CGUAAGCAAUAUUACGAUUG
3. GAACAGCAAUAUUACGUAGU
4. CCAUAGCAAUAUUACGGUAU
5. GUUAAGCAAUAUUACGUGAA

1. -1.04
2. -0.745
3. -1.55
4. -3.54
5. -1.75

Entry CGGCAGCAAUAUUACGACCA — recorded self-splicing fitness (ln) = -0.307
